The origin of these recorded values is patent US20240041042A1.

Test system: Verconica persica (VERPE)
Experiment: Post-emergence herbicidal action against VERPE
Type: in vivo
Conditions: 320 g/ha, VERPE
Test readout: Post-emergence action against VERPE in % (%)
Enter your answer as a number in %; do not include the unit.

Example results:
| Molecule | Test readout | Measured value |
| --- | --- | --- |
| COCCOC(=O)COc1nn(-c2ccccn2)c(-c2ccc(F)nc2)c1Br | Post-emergence action against VERPE in % | 90 |
| CCOC(=O)COc1nn(-c2ccccn2)c(-c2ccnc(F)c2)c1Br | Post-emergence action against VERPE in % | 90 |

Task: For the molecule COCCOC(=O)COc1nn(-c2ncccc2C(F)(F)F)c(-c2ccc(F)nc2)c1Br , report Post-emergence action against VERPE in %.
Output: 80

Task: For the molecule CC(Oc1nn(-c2ccccn2)c(-c2ccc(F)nc2)c1C(F)(F)F)C(=O)O (stereo not drawn) , report Post-emergence action against VERPE in %.
Output: 90

Task: For the molecule Cc1ncccc1-n1nc(OCC(=O)O)c(Cl)c1-c1cncc(F)c1 , report Post-emergence action against VERPE in %.
Output: 90

Task: For the molecule COC(=O)C(C)COC(=O)[C@@H](C)Oc1nn(-c2ccccn2)c(-c2ccc(F)nc2)c1Cl (stereo partly drawn) , report Post-emergence action against VERPE in %.
Output: 90

Task: For the molecule CCOC(=O)COc1nn(-c2cccc(C)n2)c(-c2ccc(F)nc2)c1Br , report Post-emergence action against VERPE in %.
Output: 80

Task: For the molecule C[C@@H](Oc1nn(-c2nc(F)ccc2F)c(-c2ccc(F)nc2)c1C1CC1)C(=O)O , report Post-emergence action against VERPE in %.
Output: 80
